STUDY_TARGET: FGFR4 (h) (Homo sapiens, UniProt P22455)
METHOD: FGFR4 (enzymatic assay), TR-FRET
Type: biochemical
CONDITION_NOTES: FGFR 4 pIC50, enzymatic assay; average values if tested multiple times
Where a name gives a salt, the structure may show the parent alone.
IC50 strictly under 2 nM means YES; at 2 nM or over means NO.

COMPOUND: COc1cc(OC)c(F)c(N(Cc2nc3ccccc3[nH]2)c2ccc3ncc(-c4cnn(C)c4)nc3n2)c1
CLASSIFICATION: YES

COMPOUND: COc1cc(OC)cc(N(Cc2ncc[nH]2)c2ccc3ncc(-c4cnn(C)c4)nc3n2)c1 [24-phosphate salt]
CLASSIFICATION: YES

COMPOUND: COc1cc(/N=c2\ccc3ncc(-c4cnn(C)c4)nc3n2Cc2ccnn2C)c(F)c(OC)c1
CLASSIFICATION: YES

COMPOUND: COc1cc(OC)cc(N(CC(O)C(F)(F)F)c2ccc3ncc(-c4cnn(C)c4)nc3n2)c1 (single isomer, unassigned) [Compound 34]
CLASSIFICATION: NO

COMPOUND: COc1ccc(Cl)c(/N=c2\ccc3ncc(-c4cnn(C)c4)nc3n2CC2CCC(=O)N2)c1Cl (stereo not shown) [Compound 92]
CLASSIFICATION: NO

COMPOUND: COc1cc(OC)cc(N(CCCO)c2ccc3ncc(-c4cnn(C)c4)nc3n2)c1
CLASSIFICATION: NO

====

melting point listing for selected compounds.
EXPERIMENTAL_ENDPOINT: melting point (°C)

COMPOUND: COc1cc(O)cc(N(Cc2ncc[nH]2)c2ccc3ncc(-c4cnn(C)c4)nc3n2)c1 [Compound 103]
EXPERIMENTAL_ENDPOINT: melting point
RESULT_UNIT: °C
MEASURED_RESULT: 172

COMPOUND: COc1cc(OC)c(F)c(N(CC(O)COC(C)C)c2ccc3ncc(-c4cnn(CC(O)COC(C)C)c4)nc3n2)c1 (single isomer, unassigned) [Compound 252]
EXPERIMENTAL_ENDPOINT: melting point
RESULT_UNIT: °C
MEASURED_RESULT: 60

COMPOUND: COc1cc(OC)cc(N(CC#Cc2ncccc2OC)c2ccc3ncc(-c4cnn(C)c4)nc3n2)c1 [Compound 26]
EXPERIMENTAL_ENDPOINT: melting point
RESULT_UNIT: °C
MEASURED_RESULT: 190

COMPOUND: COCC(O)CN(c1cc(OC)cc(OC)c1)c1ccc2ncc(-c3cnn(C)c3)nc2n1 (stereo not shown) [Compound 7]
EXPERIMENTAL_ENDPOINT: melting point
RESULT_UNIT: °C
MEASURED_RESULT: 65

====

STUDY_TARGET: Ba/F3-FGFR4-transfected cells (Homo sapiens, UniProt P22455)
Sequence (P22455 whole entry, change not shown): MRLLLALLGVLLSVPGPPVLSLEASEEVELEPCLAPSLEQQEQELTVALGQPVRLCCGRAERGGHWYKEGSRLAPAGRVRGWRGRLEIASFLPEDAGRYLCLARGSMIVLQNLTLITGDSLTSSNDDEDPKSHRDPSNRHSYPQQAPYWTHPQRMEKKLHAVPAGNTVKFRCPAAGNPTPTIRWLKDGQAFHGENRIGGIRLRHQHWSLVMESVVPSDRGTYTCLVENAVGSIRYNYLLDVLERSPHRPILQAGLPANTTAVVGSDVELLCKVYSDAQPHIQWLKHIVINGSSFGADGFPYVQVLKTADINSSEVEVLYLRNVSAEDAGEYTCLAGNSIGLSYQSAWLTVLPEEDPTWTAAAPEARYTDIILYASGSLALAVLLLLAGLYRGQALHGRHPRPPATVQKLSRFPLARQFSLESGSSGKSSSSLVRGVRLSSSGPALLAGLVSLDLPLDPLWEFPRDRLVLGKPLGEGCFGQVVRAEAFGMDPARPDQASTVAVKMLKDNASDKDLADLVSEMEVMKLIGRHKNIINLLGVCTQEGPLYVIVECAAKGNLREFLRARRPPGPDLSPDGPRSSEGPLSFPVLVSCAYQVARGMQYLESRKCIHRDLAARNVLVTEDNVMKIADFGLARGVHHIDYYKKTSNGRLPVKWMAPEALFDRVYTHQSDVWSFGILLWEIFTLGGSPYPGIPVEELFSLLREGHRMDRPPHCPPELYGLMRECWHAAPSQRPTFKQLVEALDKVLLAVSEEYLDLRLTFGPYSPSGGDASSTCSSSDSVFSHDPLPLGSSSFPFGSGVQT
METHOD: Ba/F3-FGFR4 cellular proliferation assay, Alamar Blue
Type: cell-based
Parameter: BAF3-FGFR4 pIC50. Scope: all listed entries.

COMPOUND: COc1cc(OC)c(F)c(N(Cc2ncc[nH]2)c2ccc3ncc(-c4cnn(C)c4)nc3n2)c1 [Compound 23]
BAF3-FGFR4 pIC50: 8.02
--
COMPOUND: COc1cc(OC)c(F)c(N(Cc2nc[nH]c2C)c2ccc3ncc(-c4cnn(C)c4)nc3n2)c1 [Compound 109]
BAF3-FGFR4 pIC50: ~7.05
--
COMPOUND: CNCCN(c1ccc2ncc(-c3cnn(C)c3)nc2n1)c1cc(OC)cc(OC)c1F [Compound 39]
BAF3-FGFR4 pIC50: 6.73
--
COMPOUND: COc1cc(OC)c(F)c(N(Cc2cc[nH]n2)c2ccc3ncc(-c4cnn(C)c4)nc3n2)c1 [Compound 118]
BAF3-FGFR4 pIC50: ~7.56

====

Structures can show the parent of a compound that is named as a salt.
melting point listing for selected compounds.

COMPOUND: COc1cc(OC)c(F)c(/N=c2\ccc3ncc(-c4cnn(C)c4)nc3n2CCN(C2COC2)C2COC2)c1F
melting point [°C]: 218

COMPOUND: COc1cc(OC)cc(N(CC2CCC(=O)N2)c2ccc3ncc(-c4cnn(C)c4)nc3n2)c1 (stereo not shown) [Compound 54]
melting point [°C]: 125

COMPOUND: COc1cc(OC)c(F)c(N(CC2CCC(=O)N2CCO)c2ccc3ncc(-c4cnn(C)c4)nc3n2)c1 (stereo not shown) [Compound 194]
melting point [°C]: 102

COMPOUND: COc1cc(OC)cc(N(Cc2ncc[nH]2)c2ccc3ncc(-c4cnn(C)c4)nc3n2)c1 (as salt: sulphate) [Compound 24]
melting point [°C]: 266

====

STUDY_TARGET: KDR (h) (Homo sapiens, UniProt P35968)
Sequence (P35968 20-1356): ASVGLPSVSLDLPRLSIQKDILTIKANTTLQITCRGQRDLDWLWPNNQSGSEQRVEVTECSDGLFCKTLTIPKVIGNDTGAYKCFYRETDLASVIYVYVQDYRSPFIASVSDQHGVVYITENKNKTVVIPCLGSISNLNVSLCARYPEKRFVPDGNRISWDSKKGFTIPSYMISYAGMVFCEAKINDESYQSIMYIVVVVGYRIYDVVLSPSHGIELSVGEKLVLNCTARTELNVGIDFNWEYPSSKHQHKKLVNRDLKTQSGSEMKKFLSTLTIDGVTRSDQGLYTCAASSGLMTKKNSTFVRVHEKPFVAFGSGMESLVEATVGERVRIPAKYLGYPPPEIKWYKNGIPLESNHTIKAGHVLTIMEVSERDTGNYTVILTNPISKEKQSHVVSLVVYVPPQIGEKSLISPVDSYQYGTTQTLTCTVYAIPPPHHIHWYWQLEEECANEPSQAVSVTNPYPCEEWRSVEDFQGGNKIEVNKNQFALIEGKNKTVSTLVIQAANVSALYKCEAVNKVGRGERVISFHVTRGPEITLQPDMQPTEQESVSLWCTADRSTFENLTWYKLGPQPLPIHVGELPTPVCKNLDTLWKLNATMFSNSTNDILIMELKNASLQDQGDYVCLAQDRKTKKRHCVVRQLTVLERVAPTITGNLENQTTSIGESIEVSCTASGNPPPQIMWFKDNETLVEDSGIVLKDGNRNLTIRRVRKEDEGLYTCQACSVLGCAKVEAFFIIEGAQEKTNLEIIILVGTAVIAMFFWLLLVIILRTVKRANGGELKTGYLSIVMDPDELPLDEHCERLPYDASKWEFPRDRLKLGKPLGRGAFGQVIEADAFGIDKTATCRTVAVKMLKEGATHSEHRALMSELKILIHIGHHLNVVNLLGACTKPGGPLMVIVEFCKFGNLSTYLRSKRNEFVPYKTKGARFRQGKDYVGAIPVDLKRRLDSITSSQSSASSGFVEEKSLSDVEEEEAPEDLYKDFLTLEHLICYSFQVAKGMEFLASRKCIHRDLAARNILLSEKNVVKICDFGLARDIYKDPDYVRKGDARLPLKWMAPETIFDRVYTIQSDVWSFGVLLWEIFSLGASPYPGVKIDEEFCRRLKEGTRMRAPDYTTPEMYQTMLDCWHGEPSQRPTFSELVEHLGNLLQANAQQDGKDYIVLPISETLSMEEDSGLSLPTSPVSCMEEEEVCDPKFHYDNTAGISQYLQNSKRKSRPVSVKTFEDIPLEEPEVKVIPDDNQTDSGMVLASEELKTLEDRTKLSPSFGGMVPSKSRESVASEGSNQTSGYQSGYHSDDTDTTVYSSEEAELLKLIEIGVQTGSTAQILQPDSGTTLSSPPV
METHOD: KDR (VEGFR2) (enzymatic assay), TR-FRET
Type: biochemical
CONDITION_NOTES: read-out: VEGFR 2 (KDR) pIC50 (converted)
EXPERIMENTAL_ENDPOINT: IC50 (nM)

COMPOUND: COc1cc(OC)cc(N(CC(C)(C)O)c2ccc3ncc(-c4cnn(C)c4)nc3n2)c1 [Compound 276]
RESULT_QUALIFIER: =
MEASURED_RESULT: 141
--
COMPOUND: COc1cc(OC)cc(N(CC2CCCOC2)c2ccc3ncc(-c4cnn(C)c4)nc3n2)c1 (stereo not drawn) [Compound 166]
RESULT_QUALIFIER: =
MEASURED_RESULT: 55
--
COMPOUND: COc1cc(/N=c2\ccc3ncc(-c4cnn(CC(C)(C)O)c4)nc3n2CC(C)(C)O)c(F)c(OC)c1 (single isomer, unassigned) [Compound 207]
RESULT_QUALIFIER: =
MEASURED_RESULT: 8.32
--
COMPOUND: COc1cc(OC)cc(N(Cc2n[nH]c(=O)o2)c2ccc3ncc(-c4cnn(C)c4)nc3n2)c1 [Compound 229]
RESULT_QUALIFIER: =
MEASURED_RESULT: 182
--
COMPOUND: COc1cc(/N=c2\ccc3ncc(-c4cnn(C)c4)nc3n2CCN2CCOCC2)cc(OC)c1 [Compound 147]
RESULT_QUALIFIER: =
MEASURED_RESULT: 5.62
--
COMPOUND: COc1cc(OC)cc(N(CCN2CCOCC2)c2ccc3ncc(-c4cnn(C)c4)nc3n2)c1 [Compound 146]
RESULT_QUALIFIER: =
MEASURED_RESULT: 41.7
--
COMPOUND: COc1cc(OC)c(F)c(N(Cc2ncc[nH]2)c2ccc3ncc(-c4ccncc4)nc3n2)c1 [Compound 211]
RESULT_QUALIFIER: =
MEASURED_RESULT: 36.3
--
COMPOUND: COc1cc(OC)cc(N(CCNC(C)=O)c2ccc3ncc(-c4cnn(C)c4)nc3n2)c1 [Compound 235]
RESULT_QUALIFIER: =
MEASURED_RESULT: 79.4
--
COMPOUND: COc1cc(/N=c2\ccc3ncc(-c4cnn(C)c4)nc3n2CCNC(C)=O)c(F)c(OC)c1 [Compound 243]
RESULT_QUALIFIER: =
MEASURED_RESULT: 15.1
--
COMPOUND: COc1cc(OC)c(F)c(N(CC(O)c2cnn(C)c2)c2ccc3ncc(-c4cnn(C)c4)nc3n2)c1 (stereo not drawn) [Compound 244]
RESULT_QUALIFIER: =
MEASURED_RESULT: 129
--
COMPOUND: COc1cc(OC)c(F)c(N(Cc2ncc[nH]2)c2ccc3ncc(N4C[C@@H](C)N[C@@H](C)C4)nc3n2)c1 [Compound 259]
RESULT_QUALIFIER: =
MEASURED_RESULT: 309
--
COMPOUND: COc1ccc(Cl)c(N(CC2CCC(=O)N2)c2ccc3ncc(-c4cnn(C)c4)nc3n2)c1Cl (stereo not drawn) [Compound 93]
RESULT_QUALIFIER: >
MEASURED_RESULT: 1000
--
COMPOUND: COc1cc(OC)cc(N(CC(O)COC(C)C)c2ccc3ncc(-c4cnn(CC(O)COC(C)C)c4)nc3n2)c1 (stereo not drawn) [Compound 250]
RESULT_QUALIFIER: =
MEASURED_RESULT: 120
--
COMPOUND: COc1cc(OC)c(F)c(N(Cc2nccn2CCO)c2ccc3ncc(-c4cnn(C)c4)nc3n2)c1 [Compound 145]
RESULT_QUALIFIER: =
MEASURED_RESULT: 25.7

====

Recorded BAF3-FGFR4 pIC50, one value per entry.
STUDY_TARGET: Ba/F3-FGFR4-transfected cells (Homo sapiens, UniProt P22455)
METHOD: Ba/F3-FGFR4 cellular proliferation assay, Alamar Blue
Format: cell-based
Procedure: Ba/F3-FGFR4 (Cellular Proliferation Assay) In a 384 well plate, 100 n1 of compound dilution in DMSO was sprayed before adding 50 μl cell culture medium (phenol red free RPMI-1640, 10% FBS, 2 mM L-Glutamine and 50 μg/ml Gentamycin) containing 20000 cells per well of Ba/F3-FGFR4-transfected cells. Cells were put in an incubator at 37° C. and 5% CO2. […]

MOLECULE: COc1cc(OC)c(F)c(N(Cc2ncc[nH]2)c2ccc3ncc(-c4cnn(CCS(C)(=O)=O)c4)nc3n2)c1
BAF3-FGFR4 pIC50: 7.18
//
MOLECULE: COc1cc(OC)c(F)c(N(CC2CCC(=O)N2CCO)c2ccc3ncc(-c4cnn(C)c4)nc3n2)c1 (single isomer, unassigned) [Compound 218]
BAF3-FGFR4 pIC50: 6.99
//
MOLECULE: COc1cc(OC)cc(N(CCO)c2ccc3ncc(-c4ccncc4)nc3n2)c1
BAF3-FGFR4 pIC50: 6.15
//
MOLECULE: COc1cc(OC)c(F)c(N(CC2CC(O)C(=O)N2)c2ccc3ncc(-c4cnn(C)c4)nc3n2)c1 (stereo not shown)
BAF3-FGFR4 pIC50: 6.29
